test: Cytotoxicity against mouse BMMC assessed as reduction in cell viability measured after 48 hrs by MTT assay; type: cell-based; conditions: mouse BMMC (bone marrow cells), read-out: LC50
Task for the reader: assign each of the following compounds its reported CC50 at 48 h.

Request: For the compound Cc1ccc2c(=O)c(CN(C)CCN(C)Cc3cn(S(=O)(=O)c4ccccc4)c4ccccc34)coc2c1 , what CC50 at 48 h is on record?
Result: < 20 µM

Request: # get_value(readout='CC50 at 48 h', item= CN(CCN(C)C(=O)c1cn(-c2cccc(C(F)(F)F)c2)c2ccc([N+](=O)[O-])cc12)C(=O)c1coc2ccccc2c1=O )
Result: < 20 µM

Request: Consider the compound shown here: O=C(c1ccc2ccccc2c1)N1CCN(Cc2cn(-c3cccc(C(F)(F)F)c3)c3ccc([N+](=O)[O-])cc23)CC1 What is its recorded CC50 at 48 h?
Result: > 20 µM

Request: What CC50 at 48 h value was documented for this compound, O=C(c1cn(-c2cccc(C(F)(F)F)c2)c2ccccc12)N1CCN(C(=O)n2ccnc2)CC1 ?
Result: < 20 µM

Request: Given CN(CCN(C)S(=O)(=O)c1ccccc1)C(=O)c1cn(S(=O)(=O)c2cccc([N+](=O)[O-])c2)c2ccccc12 , state its recorded CC50 at 48 h.
Result: > 300 µM

Values were extracted from ChEMBL document CHEMBL4665827.
